Values compiled from PubChem BioAssay (NCI).

Experiment: NCI Yeast Anticancer Drug Screen. Data for the sgs1 mgt1 strain (AID 161);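 also: 0% = growth of cultures given vehicle only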
Details: S. cerevisiae sgs1 mgt1 strain, at 50.0 µM, stronger effect = higher value
This is part of a sample that, as a whole, favours compounds with a hit. Of some 79,000 tested, about 15% had one in any assay.
readout: growth inhibition (%)
Form entry: value (%) — number only.

# annotated cases, reported growth inhibition shown
Ask | // growth inhibition lookup, key: CC(=O)c1cccc(NC(=O)/C(=N\NC(=S)NN)C2C(=O)Nc3ccccc3S2=O)c1 (configuration not stated)
Reply | -13.1

Ask | How about CCOC(=O)c1c(C)[nH]c(C)c1/C=C/C(=O)O ?
Reply | -0.9

Continuing:
Ask | growth inhibition lookup needed for Clc1cc2nc(C3CCCO3)[nH]c2cc1Cl (configuration not stated) , thanks.
Reply | 29.5

Ask | // next record CCc1cc(C(C)(C)C)cc(C(C)(C)C)c1O
Reply | -5.75

Ask | Same question, CCCC(CCC)C(=O)OCC(=O)c1ccc(-c2ccccc2)cc1 this time
Reply | 5

Ask | Here is the next molecule: CCC1Cc2ccccc2OC1=O (configuration not stated)
Reply | -1.95

----------
Test: NCI Yeast Anticancer Drug Screen. Data for the sgs1 mgt1 strain (AID 161);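 also: 0% = growth of cultures given vehicle only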
Conditions: S. cerevisiae sgs1 mgt1 strain, at 50.0 µM, stronger effect = higher value
This is part of a sample that, as a whole, favours compounds with a hit. Of some 79,000 tested, about 15% had one in any assay. Activity calls are given as the source filed them. Rule as the data show it: active = growth inhibition above about 70%; inactive = the rest.
Listed compounds paired with reported growth inhibition

Illustrative cases are given below, each with its answer.
Ask | Dear colleague, I am looking for the recorded growth inhibition of the following compound: OCC12CCCC(OC1)O2 (stereo not given)
Reply | -25.9% (inactive)

Ask | Param item: CCCCN(CCCC)CC(O)c1cc(-c2ccccc2)nc2c(O)cccc12 (stereo not given)
Reply | -18.2% (inactive)

Ask | Now give it for CS(=O)(=O)Nc1ccc2ccccc2c1 too.
Reply | -22.5% (inactive)

Ask | Again, but for Nc1nc2c(ccc3ccccc32)[nH]1
Reply | 8.4% (inactive)

Ask | Cc1ccc2c(c1)C(c1ccccc1)(c1ccccc1)OC2=O ?
Reply | 6.75% (inactive)

Others:
Ask | GET /values?readout=growth inhibition&item= CCC(CC)C1OCC(O)CO1 (stereo not given) (tested in a mixture with another compound)
Reply | 10% (inactive)

Ask | Now this one: C/C(C#CC1=CCCCC1)=N\Nc1ccc([N+](=O)[O-])cc1[N+](=O)[O-]
Reply | -8.1% (inactive)

Ask | Again, but for Nc1ncnc2c1ncn2C1OC(COP(=O)(O)OP(=O)(O)OCC2OC([n+]3cccc(C=O)c3)C(O)C2O)C(O)C1O (stereo not given)
Reply | 6.85% (inactive)

Ask | Also S=C(Sc1nc2ccccc2[nH]1)Sc1nc2ccccc2[nH]1 ?
Reply | 10.2% (inactive)

Ask | Input COC1=C(OCc2ccccc2)C(=O)OC1C(O)CO (stereo not given)
Reply | 0.5% (inactive)

----------
# growth inhibition listing for each entry below
Assay: NCI Yeast Anticancer Drug Screen. Data for the mec2-1 strain (AID 157)
Settings: S. cerevisiae mec2-1 strain, at 50.0 µM, stronger effect = higher value
This is part of a sample that, as a whole, favours compounds with a hit. Of some 79,000 tested, about 15% had one in any assay.
Number in %, nothing else.

// known answers, use as guide
Ask | What measured growth inhibition goes with COc1ccc(NC(=O)COC(=O)c2cccc3c(=O)c4ccccc4[nH]c23)cc1 ?
Reply | 41.2

Ask | Follow-up item: O=[N+]([O-])c1ccc(S(=O)(=O)SC(F)(F)F)cc1
Reply | 3.85

Ask | What would you report for CN(C1c2ccccc2Oc2ccccc21)S(=O)(=O)c1ccc([N+](=O)[O-])cc1 ?
Reply | -2.7

Ask | Next compound: OC(c1cccc(OCc2ccccc2)c1)c1ccccn1 (stereo not drawn)
Reply | -6.6

Others:
Ask | Dear colleague, I am looking for the recorded growth inhibition of the following compound: O=C1Cc2nc(CO)c(CO)c(CO)c2CO1
Reply | -34.6

Ask | Same for CCOc1ncc(C(O)c2ccc(C)cc2)c(OCC)n1 (stereo not drawn)
Reply | -11.1

Ask | Input CCNC(=O)COc1ccc(Cl)cc1C(C)C
Reply | 7.75

Ask | Also CC12CC3CC/C(=N\O)C(C1)C3(N1CCOCC1)C/C2=N/O (stereo not drawn) ?
Reply | -16.7
